Read-out: Macrophage colony-stimulating factor (MCSF), CSF1 (gene 1435)
test.protocol: BSK_LPS_MCSF: BioMAP Diversity Plus: LPS Assay for Macrophage colony-stimulating factor (MCSF) Biomarker Activity (AID 2283083)
assay.setup: primary human HUVEC with PBMC; actives raise or lower the signal
Experimental: BSK_LPS is a cell-based, multiplexed-readout assay that uses umbilical vein endothelium and peripheral blood mononuclear cells, a human vascular primary cell co-culture, with measurements taken at 24 hours after chemical dosing in a 96-well plate.BSK_LPS_MCSF is an assay component measured in the BSK_LPS assay. It measures M-CSF antibody related to regulation of gene expression using ELISA technology.Data from the assay component BSK_LPS_MCSF was analyzed into 1 assay endpoint. […]
The source made the active and inactive calls. Rule for the calls: active = hit-call score of the fitted dose curve at least 0.9, where 1 is the maximum; inactive = score below 0.9.
Write down the outcome that applies. Available outcomes: active, inactive

These solved cases illustrate the format of a correct answer.
INSERT INTO results (cpd_smiles, class) VALUES
  ('CC(=O)c1ccc(C)cc1', 'inactive'),
  ('O=S(=O)(O)C(F)(F)C(F)(F)OC(F)(F)C(F)(F)F', 'inactive'),
  ('CCCCOCCOCCO', 'inactive'),
  ('O=S1(=O)CC(Cl)(Cl)C(Cl)(Cl)C1', 'active'),
  ('c1ccc(Sc2ccccc2)cc1', 'active');

QUERY: Please let me know the test result on file for `C[C@]12CC[C@@H]3c4ccc(O)cc4CC[C@H]3[C@@H]1CC[C@@H]2O` .
RESULT: inactive

QUERY: Please let me know the test result on file for `CCCCCCCCCCCCS` .
RESULT: active

The origin of these recorded values is PubChem BioAssay (EPA / NIEHS).
